Assay: photoluminescence quantum yield (fraction); solvent given as SMILES
Conditions: in CCOC(C)=O
READOUT LABEL: photoluminescence quantum yield
Just the number, please, no unit attached.

Sample answers from the record:
COMPOUND: CC(C)(C)OC(=O)n1ccc2c3ccc4cccc5ccc(cc21)c3c54
OBSERVED: 0.27
--
COMPOUND: CN(C)c1ccc(C#Cc2ccc(C=O)cc2)cc1
OBSERVED: 0.174
--
COMPOUND: Cc1ccc(-n2c3ccccc3c3cc(C(=C(C#N)C#N)c4ccccc4)ccc32)cc1
OBSERVED: 0.09
--
COMPOUND: Cc1ccc(C2=C3C=CC(/C=C/c4ccccc4)=[N+]3[B-](F)(F)n3c(Cl)ccc32)cc1
OBSERVED: 0.57
--
COMPOUND: Clc1nc(Nc2ccccc2)nc(Nc2ccc3cc4ccccc4cc3c2)n1
OBSERVED: 0.23
--
COMPOUND: CCn1c2ccccc2c2cc(-c3cc(-c4ccc5c(c4)c4ccccc4n5CC)nc(-c4ccc(OC)cc4)n3)ccc21
OBSERVED: 0.56
--
COMPOUND: CCN(CC)c1ccc2c(C#N)c(/C=C(\C#N)c3nc4ccccc4o3)c(=O)oc2c1
OBSERVED: 0.0434
--
COMPOUND: O=C1NC(=O)C(c2c[nH]c3ccccc23)=C1c1c[nH]c2ccccc12
OBSERVED: 0.21

Query :: Entry under review: CC(=O)c1nc(-c2ccc(N(c3ccccc3)c3ccccc3)cc2)oc1C . Reported photoluminescence quantum yield?
Result :: 0.659

* * *

Experiment: photoluminescence quantum yield (fraction); solvent given as SMILES
Conditions: in C1CCCCC1
Grouping key: photoluminescence quantum yield. Bins: low band = under 0.05, middle band = from 0.05 up to 0.4, high band = 0.4 and over

CHEM SMILES: Clc1cc(Cl)c([C](c2c(Cl)cc(Cl)cc2Cl)c2c(Cl)cc(Cl)cc2Cl)c(Cl)c1
ASSIGNED CLASS: low band
--
CHEM SMILES: CC(C)[Si]1(C(C)C)c2cc(N(C)C)ccc2-c2ccc(C(F)(F)F)cc21
ASSIGNED CLASS: middle band
--
CHEM SMILES: Cc1ccccc1[B-]1(c2ccccc2C)n2nc(C(F)(F)F)cc2-c2c3ccccc3cc[n+]21
ASSIGNED CLASS: low band
--
CHEM SMILES: Nc1ccc2[nH]ncc2c1
ASSIGNED CLASS: middle band
--
CHEM SMILES: C(=C\c1nc2ccccc2s1)/c1ccccc1
ASSIGNED CLASS: low band
--
CHEM SMILES: CCC1(CC)c2cc(N(C)C)ccc2-c2ccc(C(F)(F)F)cc21
ASSIGNED CLASS: high band
--
CHEM SMILES: CCN(CC)c1ccc2c(c1)oc(=O)c1cc3cnn(-c4ccccc4)c3nc12
ASSIGNED CLASS: high band
--
CHEM SMILES: c1cc2c3c(c1)OCCCCCCCCOc1cccc(c1-c1c4ccccc4c-3c3ccccc13)OCCCCCCCCO2
ASSIGNED CLASS: high band

Alright, here's another compound for you.
Query :: Kindly state the category for this compound: c1ccc(-c2cc3cccc[n+]3[b-]3ccc(-c4cc[b-]5c(c4)c(-c4ccccc4)cc4cccc[n+]54)cc32)cc1
Result :: middle band

* * *

Assay: photoluminescence quantum yield (fraction); solvent given as SMILES
Conditions: in C1CCOC1
READOUT LABEL: photoluminescence quantum yield
Just the number, please, no unit attached.

Sample answers from the record:
CHEM SMILES: CCN(CC)c1ccc(-c2nc3c(nc2-c2ccc(B(c4c(C)cc(C)cc4C)c4c(C)cc(C)cc4C)cc2)c2ccccc2n3C)cc1
photoluminescence quantum yield: 0.21
//
CHEM SMILES: CN(C)c1ccc(/C=C/c2nc3c4ccccc4c4ccccc4c3[nH]2)cc1
photoluminescence quantum yield: 0.055
//
CHEM SMILES: Cn1cc(-c2nc3ccccc3nc2/C=C/N2CCCC2)c2ccccc21
photoluminescence quantum yield: 0.444

Okay, now this compound:
Query :: Entry under review: O=C(c1ccc(N(c2ccccc2)c2ccccc2)cc1)[C@H]1[C@H](c2ccc(F)cc2)C[C@](O)(c2ccccn2)C[C@]1(O)c1ccccn1 . Reported photoluminescence quantum yield?
Result :: 0.4

* * *

This section presents compounds with their documented photoluminescence quantum yield values.
Assay: photoluminescence quantum yield (fraction); solvent given as SMILES
Conditions: in CCOC(C)=O
Just the number, please, no unit attached.

Sample answers from the record:
COMPOUND: Clc1nc(Nc2ccccc2)nc(Nc2ccc3c4cccc5cccc(c6cccc2c63)c54)n1
READOUT LABEL: photoluminescence quantum yield
OBSERVED: 0.43
--
COMPOUND: c1ccc2c(c1)CCc1c-2cnc2c1-c1ccccc1CC2
READOUT LABEL: photoluminescence quantum yield
OBSERVED: 0.567
--
COMPOUND: NS(=O)(=O)c1ccc(N2N=C(c3ccc(O)cc3)CC2c2ccc([N+](=O)[O-])cc2)cc1 (centres undefined)
READOUT LABEL: photoluminescence quantum yield
OBSERVED: 0.01
--
COMPOUND: CC1=CC(C)=[N+]2C1=C(c1ccc(N(C)C)cc1)c1c(C)cc(C)n1[B-]2(F)F
READOUT LABEL: photoluminescence quantum yield
OBSERVED: 0.011
--
COMPOUND: CCC1=C(C)C2=C(c3c(C)cc(C)nc3-c3cccs3)c3c(C)c(CC)c(C)n3[B-](F)(F)[N+]2=C1C
READOUT LABEL: photoluminescence quantum yield
OBSERVED: 0.47

Query :: Entry under review: COc1ccccc1C1=C2C(C)=CC(C)=[N+]2[B-](F)(F)n2c(C)cc(C)c21 . Reported photoluminescence quantum yield?
Result :: 0.76

Query :: Entry under review: Nc1ccc2c(c1)C(=O)O/C2=C\c1ccc(Cl)cc1 . Reported photoluminescence quantum yield?
Result :: 0.11

Query :: Entry under review: COc1ccc(/C=C/c2ccccc2)cc1OC . Reported photoluminescence quantum yield?
Result :: 0.046

Query :: Entry under review: CSC1=C2C=C(c3cc4n(c3)[B-](F)(F)[N+]3=CC=CC3=C4c3c(C)cc(C)cc3C)C(C)=[N+]2[B-](F)(F)n2c(C)ccc21 . Reported photoluminescence quantum yield?
Result :: 0.19

* * *

Assay: photoluminescence quantum yield (fraction); solvent given as SMILES
Conditions: in ClCCl
READOUT LABEL: photoluminescence quantum yield
Just the number, please, no unit attached.

COMPOUND: CCCCCCOc1ccc2c(c1)-c1cc3c(cc1[Si]2(C)C)-c1ccccc1[Si]3(C)C
photoluminescence quantum yield: 0.51

COMPOUND: Nc1ccc2c3cccc4cccc(c5cccc1c52)c43
photoluminescence quantum yield: 0.47

COMPOUND: C(=C\c1ccncn1)/c1ccc(-c2ccc(N(c3ccccc3)c3ccccc3)cc2)cc1
photoluminescence quantum yield: 0.52

COMPOUND: CC(C)[Si](C#Cc1ccc(C#C[Si](C(C)C)(C(C)C)C(C)C)c2nc3cc4c(cc3nc12)[C@H]1c2ccccc2[C@@H]4c2ccccc21)(C(C)C)C(C)C
photoluminescence quantum yield: 0.02

COMPOUND: CCn1c2ccccc2c2cc(/C=C3\C(=O)c4ccccc4S3(=O)=O)ccc21
photoluminescence quantum yield: 0.04

COMPOUND: CCC(=O)c1ccc2cc(N(C)C)ccc2c1
photoluminescence quantum yield: 0.94

COMPOUND: CC(C)(C)NC(=O)c1cccc2ccc3c4ccc(F)cc4c4cc(F)ccc4c3c12
photoluminescence quantum yield: 0.05

COMPOUND: c1ccc(-c2nc(-c3cccc4ccccc34)n3ccccc23)cc1
photoluminescence quantum yield: 0.125

Query :: Entry under review: O=[N+]([O-])c1ccc(-c2cn3ccc[n+]3[n-]2)cc1 . Reported photoluminescence quantum yield?
Result :: 0.16

Query :: Entry under review: CCCCNc1ccc2n1[B-](F)(F)[N+]1=CC(/C=C/C(=O)OC(C)(C)C)=CC1=C2c1c(C)cc(C)cc1C . Reported photoluminescence quantum yield?
Result :: 0.59

Query :: Entry under review: C(#Cc1c(C#Cc2ccccc2)c(C#Cc2ccccc2)c(C#Cc2ccccc2)c(C#Cc2ccccc2)c1C#Cc1ccccc1)c1ccccc1 . Reported photoluminescence quantum yield?
Result :: 0.43

Query :: Entry under review: CC(C)(C)c1ccc(C#Cc2c(C#Cc3ccc(C(C)(C)C)cc3)c3cccc4c(C#Cc5ccc(C(C)(C)C)cc5)c(C#Cc5ccc(C(C)(C)C)cc5)c5cccc2c5c34)cc1 . Reported photoluminescence quantum yield?
Result :: 0.7

Query :: Entry under review: O=Cc1ccc(-c2ccc(O)c(-c3nc4ccccc4s3)c2)o1 . Reported photoluminescence quantum yield?
Result :: 0.0632

Query :: Entry under review: Cc1cc(C)n2c1C=C1c3ccccc3C(c3cccn3C)=[N+]1[B-]2(F)F . Reported photoluminescence quantum yield?
Result :: 0.99

* * *

Assay: photoluminescence quantum yield (fraction); solvent given as SMILES
Conditions: in C1CCOC1
This section presents compounds with their documented photoluminescence quantum yield values.
Just the number, please, no unit attached.

Sample answers from the record:
CHEM SMILES: CON(OC)c1cc2c3cc(-c4c(C)cc(C)cc4C)cc4c5cc(-c6c(C)cc(C)cc6C)cc6c7cc(B(c8c(C)cc(C)cc8C)c8c(C)cc(C)cc8C)cc8c9cc(-c%10c(C)cc(C)cc%10C)cc%10c%11cc(-c%12c(C)cc(C)cc%12C)cc%12c(c1)c2c1c(c43)c(c65)c(c78)c(c9%10)c1c%11%12
photoluminescence quantum yield: 0.46

CHEM SMILES: CCCCCOc1cc2oc(=O)c3c4ccc(N(c5ccccc5)c5ccccc5)cc4c4ccc5cccc6c(c1)c2c3c4c56
photoluminescence quantum yield: 0.752

CHEM SMILES: CC1=CC(C)=[N+]2C1=C(c1ccc(N3CCOCC3)cc1)c1c(C)cc(C)n1[B-]2(F)F
photoluminescence quantum yield: 0.011

CHEM SMILES: c1cc2ccc1-c1ccc(cc1)-c1ccc(s1)-c1ccc(cc1)-c1ccc(cc1)-c1ccc(s1)-c1ccc(cc1)-c1ccc(cc1)-c1ccc-2s1
photoluminescence quantum yield: 0.27

Query :: Entry under review: O=C1OC(=O)c2cc(Oc3ccccc3)c3c4ccc5c6c(cc(Oc7ccccc7)c(c7ccc1c2c73)c64)C(=O)OC5=O . Reported photoluminescence quantum yield?
Result :: 0.5

Query :: Entry under review: F[B-]1(F)n2cccc2C=C2c3ccccc3C(c3ccc[nH]3)=[N+]21 . Reported photoluminescence quantum yield?
Result :: 0.82

Query :: Entry under review: COc1cc2oc(=O)c3c4ccc(C=O)cc4c4ccc5cccc6c(c1)c2c3c4c56 . Reported photoluminescence quantum yield?
Result :: 0.459

Query :: Entry under review: F[Si](c1ccccc1)(c1ccccc1)c1cc2ccccc2c2ccccc12 . Reported photoluminescence quantum yield?
Result :: 0.11

Query :: Entry under review: N#Cc1cc(-n2c3ccccc3c3ccccc32)c(-n2c3ccccc3c3ccccc32)cc1C#N . Reported photoluminescence quantum yield?
Result :: 0.125
